This collection of values is drawn from patent US12054478B2.

# SYSTEM_UNDER_TEST: MLL1-WDR5 protein-protein interactions (Homo sapiens)
# MEASUREMENT_DESCRIPTION: Inhibition of MLL1-WDR5 protein-protein interaction
# Assay type: binding
# CONDITION_DESCRIPTION: Table 2, biphenyl comparison compounds (Eur. J. Med. Chem. 2016, 124, 480-489); read-out: MLL1-WDR5 PP1 inhibition activity
What IC50 was measured for each of the following?
Dear colleague, please send the value followed by its unit.

Consider the reported IC50 for these molecules:
1. Cc1c(F)c(N)cc(C(=O)Nc2cc(-c3ccc(N)cc3)ccc2N2CCN(C)CC2)c1Cl [drawing 15, reference compound] :: 88.7 nM
2. Cc1c(F)c(N)cc(C(=O)Nc2cc(-c3ccc(NC(=O)C4CCNCC4)cc3)ccc2N2CCN(C)CC2)c1Cl [reference compound] :: 8.5 nM

Next, consider the following molecule.
Recall the recorded IC50 for Cc1c(F)c(N)cc(C(=O)Nc2cc(-c3ccccc3)ccc2N2CCN(C)CC2)c1Cl [reference compound] with MLL1-WDR5 protein-protein interactions (Homo sapiens) and state it.
47.9 nM

----------
# SYSTEM_UNDER_TEST: MLL1-WDR5 protein-protein interactions (Homo sapiens)
# MEASUREMENT_DESCRIPTION: Inhibition of MLL1-WDR5 protein-protein interaction
# Format: binding
# CONDITION_DESCRIPTION: Table 1; read-out: MLL1-WDR5 PPI inhibition activity
PROPERTY_NAME: IC50

Consider the reported IC50 for these molecules:
1) Cc1c(F)c(N)cc(C(=O)Nc2cc(-n3cc(C(=O)NCCN4CCOCC4)nn3)ccc2N2CCN(C)C(C)C2)c1Cl (stereo not shown) [Example 25] :: < 50 nM
2) Cc1c(F)c(N)cc(C(=O)Nc2cc(-n3cc(NC(=O)C4CCN(C)CC4)nn3)ccc2N2CCN(C)CC2)c1Cl [Example 14] :: < 10 nM
3) Cc1c(F)c(O)cc(C(=O)Nc2c(N3CCN(C)CC3)ccc(-n3cc(NC(=O)CCN)nn3)c2C)c1Cl [Example 23] :: < 50 nM
4) Cc1c(F)c(N)cc(C(=O)Nc2cc(-n3cc(NC(=O)CCCN)nn3)ccc2N2CCN(C)CC2)c1Cl [Example 16] :: < 10 nM

Give one value of IC50 per listed molecule.
1. Cc1c(F)c(N)cc(C(=O)Nc2cc(-n3cc(NC(=O)C4CCNCC4)nn3)ccc2N2CCN(C)CC2)c1Cl [Example 15]
2. Cc1c(F)c(O)cc(C(=O)Nc2c(N3CCN(C)CC3)ccc(-n3cc(NCC(N)=O)nn3)c2F)c1Cl [Example 21]
3. Cc1c(F)c(N)cc(C(=O)Nc2c(N3CCN(C)CC3)ccc(-n3cc(C(=O)NCCN4CCOCC4)nn3)c2C)c1Cl [Example 22]

["< 10 nM", "< 80 nM", "< 10 nM"]

----------
# MEASUREMENT_DESCRIPTION: Solubility at pH 7.4
# Type: physicochemical
# CONDITION_DESCRIPTION: aqueous medium at pH 7.4 (water solubility), aqueous buffer, Table 2, biphenyl comparison compounds
PROPERTY_NAME: solubility (µg/mL)
One number for each entry, in µg/mL.

Consider the reported solubility for these molecules:
1) Cc1c(F)c(N)cc(C(=O)Nc2cc(-c3ccc(N)cc3)ccc2N2CCN(C)CC2)c1Cl [drawing 15, reference compound] :: 9.5
2) Cc1c(F)c(N)cc(C(=O)Nc2cc(-c3ccccc3)ccc2N2CCN(C)CC2)c1Cl [reference compound] :: 3.1
3) Cc1c(F)c(N)cc(C(=O)Nc2cc(-c3ccc(NC(=O)CCCN)cc3)ccc2N2CCN(C)CC2)c1Cl [drawing 21, reference compound] :: 110
4) Cc1c(F)c(N)cc(C(=O)Nc2cc(-c3ccc(C(=O)N(C)C)cc3)ccc2N2CCN(C)CC2)c1Cl [reference compound] :: 21
5) Cc1c(F)c(N)cc(C(=O)Nc2cc(-c3ccc(NC(=O)C4CCN(C)CC4)cc3)ccc2N2CCN(C)CC2)c1Cl [reference compound] :: 54
6) Cc1c(F)c(N)cc(C(=O)Nc2cc(-c3ccc(C(=O)N4CCOCC4)cc3)ccc2N2CCN(C)CC2)c1Cl [reference compound] :: 27
7) Cc1c(F)c(N)cc(C(=O)Nc2cc(-c3ccc(NC(=O)C4CCNCC4)cc3)ccc2N2CCN(C)CC2)c1Cl [reference compound] :: 125

I'd like to know its solubility. The molecule in question is COC(=O)c1ccc(-c2ccc(N3CCN(C)CC3)c(NC(=O)c3cc(N)c(F)c(C)c3Cl)c2)cc1 [reference compound]
1.9

----------
# MEASUREMENT_DESCRIPTION: Solubility at pH 7.4
# Assay type: physicochemical
# CONDITION_DESCRIPTION: aqueous medium at pH 7.4 (water solubility), aqueous buffer, Table 2, compounds of this present disclosure
PROPERTY_NAME: log10(solubility) (log10 of the value in µg/mL)
Log scale reminder: solubility in µg/mL, then log10 taken.

1) Cc1c(F)c(N)cc(C(=O)Nc2cc(-n3ccnn3)ccc2N2CCN(C)CC2)c1Cl [drawing 12] :: 1.48
2) Cc1c(F)c(N)cc(C(=O)Nc2cc(-n3cc(C(=O)N4CCOCC4)nn3)ccc2N2CCN(C)CC2)c1Cl [drawing 10] :: 2.30
3) Cc1c(F)c(N)cc(C(=O)Nc2cc(-n3cc(NC(=O)C4CCN(C)CC4)nn3)ccc2N2CCN(C)CC2)c1Cl [drawing 16] :: 2.80
4) COC(=O)c1cn(-c2ccc(N3CCN(C)CC3)c(NC(=O)c3cc(N)c(F)c(C)c3Cl)c2)nn1 [drawing 6] :: 1.30
5) Cc1c(F)c(N)cc(C(=O)Nc2cc(-n3cc(N)nn3)ccc2N2CCN(C)CC2)c1Cl [drawing 14] :: 2.04
6) Cc1c(F)c(N)cc(C(=O)Nc2cc(-n3cc(C(=O)N(C)C)nn3)ccc2N2CCN(C)CC2)c1Cl [drawing 8] :: 2.23
7) Cc1c(F)c(N)cc(C(=O)Nc2cc(-n3cc(NC(=O)CCCN)nn3)ccc2N2CCN(C)CC2)c1Cl [drawing 20] :: 3.11

Next, consider the following molecule.
I'd like to know its log10(solubility). The molecule in question is Cc1c(F)c(N)cc(C(=O)Nc2cc(-n3cc(NC(=O)C4CCNCC4)nn3)ccc2N2CCN(C)CC2)c1Cl [drawing 18]
3.09

----------
# SYSTEM_UNDER_TEST: MLL1-WDR5 protein-protein interactions (Homo sapiens, UniProt P61964)
# MEASUREMENT_DESCRIPTION: Inhibition of MLL1-WDR5 protein-protein interaction
# Type: binding
# CONDITION_DESCRIPTION: Table 1; read-out: MLL1-WDR5 PPI inhibition activity
pIC50: −log10 of the molar value.
What pIC50 was measured for each of the following?

Consider the reported pIC50 for these compounds:
1. Cc1c(F)c(N)cc(C(=O)Nc2cc(-c3ccc(N)cc3)ccc2N2CCN(C)CC2)c1Cl [DDO-2084, reference compound] :: 7.05
2. Cc1c(F)c(N)cc(C(=O)Nc2cc(-n3cc(C(=O)NCCN4CCOCC4)nn3)ccc2N2CCCN(C)CC2)c1Cl :: > 7.30
3. Cc1c(F)c(N)cc(C(=O)Nc2cc(-n3cc(CCN(C)C)nn3)ccc2N2CCN(C)CC2)c1Cl :: > 7.30
4. Cc1c(F)c(N)cc(C(=O)Nc2cc(-n3cc(C(=O)NCCCN)nn3)ccc2N2CCN(C)CC2)c1Cl :: > 8.00
5. Cc1c(F)c(N)cc(C(=O)Nc2cc(-n3cc(N)nn3)ccc2N2CCN(C)CC2)c1Cl :: > 7.10

Give one value of pIC50 per listed compound.
1. Cc1c(F)c(N)cc(C(=O)Nc2cc(-n3cc(NC(=O)CCO)nn3)ccc2N2CCN(C)CC2)c1Cl
2. Cc1c(F)c(N)cc(C(=O)Nc2cc(-n3cc(NC(=O)OC(C)(C)C)nn3)ccc2N2CCN(C)CC2)c1Cl

1: > 7.30; 2: > 7.10

----------
# SYSTEM_UNDER_TEST: MLL1-WDR5 protein-protein interactions (Homo sapiens)
# MEASUREMENT_DESCRIPTION: Inhibition of MLL1-WDR5 protein-protein interaction
# Format: binding
# CONDITION_DESCRIPTION: Table 2, compounds of this present disclosure; read-out: MLL1-WDR5 PP1 inhibition activity
What IC50 was measured for each of the following?
One number for each entry, in nM.

1. Cc1c(F)c(N)cc(C(=O)Nc2cc(-n3cc(NC(=O)CCCN)nn3)ccc2N2CCN(C)CC2)c1Cl [drawing 20] :: 6.7
2. Cc1c(F)c(N)cc(C(=O)Nc2cc(-n3cc(NC(=O)C4CCNCC4)nn3)ccc2N2CCN(C)CC2)c1Cl [drawing 18] :: 12.3
3. Cc1c(F)c(N)cc(C(=O)Nc2cc(-n3cc(NC(=O)C4CCN(C)CC4)nn3)ccc2N2CCN(C)CC2)c1Cl [drawing 16] :: 6

Give one value of IC50 per listed compound.
1. Cc1c(F)c(N)cc(C(=O)Nc2cc(-n3ccnn3)ccc2N2CCN(C)CC2)c1Cl [drawing 12]
2. Cc1c(F)c(N)cc(C(=O)Nc2cc(-n3cc(N)nn3)ccc2N2CCN(C)CC2)c1Cl [drawing 14]

[65.7, 90.3]
